Where these numbers come from: a protein production outcome set (Wang et al. 2014)

Measurement notes: label from the status in PepcDB records
Property measured: protein production

INSERT INTO results (sequence_data, result) VALUES
  ('MSGTLFTYRRKVDFGDCDSARIYFTPRAVDYAVEAVEAWFGDVLGVSWADLFLRHDLDVTFVRMGCEYFRPVIADQTVHVRVRATAVDRSSVTFSAAGEDDSGGVFFRATLVAQFRAGRNRAPVPIPPRYRERMEDCLEQADGKSGTVAQRVGGEPFLSRLQSDGVHFTVRRRVVYGDCTLSGTVYAPRLFNYAVEAVGEWYRETLGISWREQCIRLRGAPFREVWCERLAPLVPGQVITMTVGIPRLGKSSIGYEVVGYDDRGEPCFQVGMSACYISEETGSIKAIPFPDDMRSRILAYQVLCDQGVIPATAS', 'failed'),
  ('VKAAQGLLLSVFHLYPKRKVEIILYNEKWAECFDEEKERLKLVFGPEIIAIHHIGSTSIPNMAAKPIIDMLIEVRSIEAVSQFDEQMKANGYTPKGENGIAGRRYFQKGGNKRTHHVHMYEQGNPAIERHLLFRDYLRAHPNIAKEYAVLKKQLAAQHPDSINQYIQGKDEWIKTAEENAKRWKKGRNNANGSIVCYNSENDENGGFTL', 'failed'),
  ('MLQTIKRADSAVSIIGAGIAGAWQALLFAQAGHAVTLHERGDAAMTDSTSHWAGGMLAPWCEAEVAEPIISRLGQRSLDIWRRELPDTPFNGSLVVAHPRERNDFERFARMTEEHRRLDAASLAELEPSLEGRFRDALFFPTEGHVEPRRVLPKLHERIRAAGGTIKFSSDVSAADLDGIVIDCRGLSARDEQPDLRGVKGEMILIETSEVQLARPVRLIHPRWPLYVIPREDNLFMLGATSIEAEDTGVSVRSALELLGAAYTVHPAFGEARIVEFGSGLRPAFPDNLPRIGIRGGRITVNGLYRHGFLIAPALAELTLQYVQRGQIDNEVMQCG', 'failed');

====

Measurement notes: label from the status in PepcDB records
Property measured: protein production

INSERT INTO measurements (sequence_data, property_measured, result) VALUES
  ('MKKVLPALLMGFVGLNASDRLLEIMRLYQKQGLEMVGQKLDSYLADKSFWAEELQNKDTDFGYYQNKQFLFVANKSKPSLEFYEIENNMLKKINSSKALVGSKKGDKTLEGDLATPIGVYRITQKLERLDQYYGVLAFVTNYPNLYDTLKKRTGHGIWVHGMPLNGDRNELNTKGCIAIENPLLSSYDKVLKGEKAFLITYEDKFFPSTKEELSMILSSLFQWKEAWARGDFERYMRFYNPNFTRYDGMKFNAFKEYKKRVFAKNEKKNIAFSSINVIPYPNSQNKRLFYVVFDQDYKAYQHNKLSYSSNSQKELYIEIENNQVSIIMEK', 'protein production', 'failed'),
  ('MKKEIASHLLEIGAVFLQPNDPFTWSSGMKSPIYCDNRLTLSYPKVRQTIAAGLEELIKEHFPTVEVIAGTATAGIAHAAWVSDRMDLPMCYVRSKAKGHGKGNQIEGKAEKGQKVVVVEDLISTGGSAITCVEALREAGCEVLGIVSIFTYELEAGKEKLEAANVASYSLSDYSALTEVAAEKGIIGQAETKKLQEWRKNPADEAWITA', 'protein production', 'not failed'),
  ('MLIRPATTADFDALRAIELAAFETLRAAGAVSGSASASTDQQLQRYLDHGLLDVACDQSGEPIGFCGGYIAESFLHIGEMDVHPAWQRQGVGRRLLTALLEEARARKADGATLTTDRLVPFNAPFYASLGFRPLADDELPAKLREILDAEANMGLDPDRRIAMMLRF', 'protein production', 'failed'),
  ('MQKKSQTAQSYHPMIKEFPEFYGPLTCPGQFLALLILEFGLNFAEIQKLKWENFNWNFKYLTIEKAGIKRVLPIREKFAIRVKAINNADELFAKSRQFLYTELKKFTNYSSKEIREQYILHQVKAGKSIYELATLLGLTTITTLEKYYRLEHHHHHH', 'protein production', 'failed'),
  ('MIKLIATDIDGTLVKDGSLLIDPEYMSVIDRLIDKGIIFVVCSGRQFSSEFKLFAPIKHKLLYITDGGTVVRTPKEILKTYPMDEDIWKGMCRMVRDELPACDYFAATPDFCFAEDGGSPIFHLLRDSYGFEMREVDDITRLDRNDIIKFTVFHPDKCEELCTPVFIPAWNKKAHLAAAGKEWVDCNAKGVSKWTALSYLIDRFDLLPDEVCCFGDNLNDIEMLQNAGISYAVSNARQEVIAAAKHTCAPYWENGVLSVLKSFL', 'protein production', 'not failed');

Below: the item to evaluate.
For record MKPVIQTFLRAAAVAGLALLAGCAGVSTTQSGAIGVDRTQYMSSLVPEQALVQEAGQQYAEIVQEARAKGLLDRDPAQLSRVRAISQRLIAQTGVFRADAANWPWEVHVLSVDEVNAWCMPGGKIAVYTGLLAHIKPTDDELAAVLGHEIAHALREHARERVSQQMATSIGLSVLSMATGSPGASDLGGKLTEVMFTLPNSRTHETEADRMGVELAARAGFDPRAAVTLWQKMGAADGNAPPEFLSTHPSASTRIGELQQALQKVLPLYEQARGQAAKLEHHHHHH the listed protein production is not failed
